Data provenance: ChEMBL document CHEMBL1255386

Species: Homo sapiens
test.description: Toxicity in HBeAg-positive chronic hepatitis B patient assessed as increase in blood CK level at 0.5 mg/day
Assay type: organism-based
cond: in vivo
value.kind: Activity (patients)

C=C1[C@H](CO)[C@@H](O)C[C@@H]1n1cnc2c(=O)[nH]c(N)nc21.O; 3
